Ref: ChEMBL document CHEMBL5576091

test: Cytotoxicity against human TZM-bl cells assessed as reduction in cell viability incubated for 48 hrs by MTT assay; format: toxicity, cell-based
Please provide measured CC50 at 48 h for the entries that follow.
Numbers only, in µM.

A selection of reference data follows.
- molecule: "C[Se][C@H]1[C@H](O)[C@@H](COP(=O)(N[C@@H](C)C(=O)OC(C)C)Oc2ccccc2)O[C@H]1n1cc(C)c(=O)[nH]c1=O (stereo partly specified)"
  CC50 at 48 h [µM]: 0.006
- molecule: "C[Se][C@H]1[C@H](O)[C@@H](COP(=O)(N[C@@H](C)C(=O)OC(C)C)Oc2ccccc2)O[C@H]1n1cnc2c(N)nc(N)nc21 (stereo partly specified)"
  CC50 at 48 h [µM]: 2.8
- molecule: "C[Se][C@H]1[C@H](O)[C@@H](CO)O[C@H]1n1cnc2c(N)nc(F)nc21"
  CC50 at 48 h [µM]: 29

Provide each entry's CC50 at 48 h from the list below.
1. C[Se][C@H]1[C@H](O)[C@@H](CO[P@@](=O)(N[C@@H](C)C(=O)OC(C)C)Oc2ccccc2)O[C@H]1n1cnc2c(N)nc(F)nc21
2. C[Se][C@H]1[C@H](O)[C@@H](COP(=O)(N[C@@H](C)C(=O)OC(C)C)Oc2ccccc2)O[C@H]1n1cnc2c(=O)[nH]c(N)nc21 (stereo partly specified)

1: 80; 2: 63
